- study target: NP (nucleoprotein of influenza A virus H1N1, full-length wild type) (Influenza A virus (A/Nanchang/11/1996(H1N1)), UniProt Q07FI1)
- Construct: full-length (498 aa), N-terminal 6xHis-tag as printed, pET21b NdeI/XhoI, E. coli, Ni-NTA, RNase-treated lysate
- Sequence (Q07FI1 whole entry): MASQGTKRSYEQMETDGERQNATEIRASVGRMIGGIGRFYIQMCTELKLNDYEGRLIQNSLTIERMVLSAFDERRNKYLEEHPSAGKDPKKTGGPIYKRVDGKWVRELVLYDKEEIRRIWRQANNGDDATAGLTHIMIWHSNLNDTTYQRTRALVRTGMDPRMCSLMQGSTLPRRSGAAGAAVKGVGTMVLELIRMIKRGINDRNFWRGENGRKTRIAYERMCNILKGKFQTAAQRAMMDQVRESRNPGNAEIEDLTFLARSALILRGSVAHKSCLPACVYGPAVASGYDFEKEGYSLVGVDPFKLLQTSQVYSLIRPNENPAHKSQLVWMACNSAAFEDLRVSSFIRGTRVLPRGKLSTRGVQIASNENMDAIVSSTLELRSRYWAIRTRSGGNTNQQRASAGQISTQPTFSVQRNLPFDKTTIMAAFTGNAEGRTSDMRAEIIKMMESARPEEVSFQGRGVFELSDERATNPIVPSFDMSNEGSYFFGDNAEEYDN
pKd: −log10 of the molar value.
outcome measure: pKd

[
  {
    "molecule": "COc1cc(/C=C/C(=O)CC(=O)/C=C/c2ccc(O)c(OC)c2)ccc1O [H7]",
    "obs value": 5.91
  }
]

Values from paper PMC4768256
